property_measured: melting point (°C)
Write it as a number; the unit °C goes unstated.

Indicate the recorded melting point value for this molecule: CC(C)Cn1ccc(-c2cccs2)c(C#N)c1=O [1-077]
108

Identify melting point associated with the molecule N#Cc1c(-c2ccc(CN3CCOCC3)cc2)ccn(Cc2ccc(OC(F)(F)F)cc2)c1=O [1-033]
97

Consider the molecule CC(C)CCn1ccc(N2CCC(c3coc4cc(F)ccc34)CC2)c(C#N)c1=O [4-039] . State its measured melting point.
123

Please give the documented melting point of CNC(=O)COc1ccc(-c2ccn(CCC(C)C)c(=O)c2C#N)cc1 [1-127]
156

Given CC(C)CCn1ccc(-c2ccc(CC#N)cc2)c(C#N)c1=O [1-254] , respond with its melting point.
122

Return melting point (reported value) for this molecule: COc1ccc(COc2ccc(-c3ccn(CCC(C)C)c(=O)c3C#N)cc2)cc1 [1-145]
212

Report melting point for COc1ccc(-c2ccn(CCOc3ccccc3)c(=O)c2C#N)cc1 [1-048]
188

State its melting point: N#Cc1c(N2CCC(c3ccccc3)CC2)ccn(CC2CC2)c1=O [4-047]
128

Annotate the molecule N#Cc1c(-c2cccs2)ccn(CCCc2ccccc2)c1=O [1-052] with its measured melting point.
118

Give melting point for CC(C)CCn1ccc(-c2ccc(-c3ccccc3)cc2)c(C#N)c1=O [1-093]
172

Look up and report measured melting point for this entry: CC(C)CCn1ccc(C#Cc2ccc(N(C)C)cc2)c(C#N)c1=O [1-270]
166

Give me measured melting point, please, for this molecule: COc1ccc(-c2ccn(Cc3ccc(C(F)(F)F)cc3)c(=O)c2C#N)cc1 [1-024]
181

Annotate the molecule CC(C)CCn1ccc(-c2ccc(OCc3ccncc3)cc2)c(C#N)c1=O [1-159] with its measured melting point.
171

Please indicate melting point recorded for CCCCn1ccc(N2CCN(Cc3ccc(OCC4CC4)c(Cl)c3)CC2)c(C#N)c1=O [2-003]
134

Using known records, supply melting point for CC(C)CCn1ccc(OC2CCN(Cc3ccccc3)CC2)c(C#N)c1=O [3-007]
208

Identify measured melting point associated with CSc1ccc(-c2ccn(CCC(C)C)c(=O)c2C#N)cc1 [1-256]
128

Read the entry N#Cc1c(N2CCN(Cc3ccc(OC(F)(F)F)c(Cl)c3)CC2)ccn(CC2CC2)c1=O [2-039] and write its reported melting point.
125

Item CC(C)CCn1ccc(-c2ccc(O)cc2)c(C#N)c1=O [1-097] : provide melting point
210

Answer with the recorded melting point for the molecule listed here: N#Cc1c(NC2CCN(Cc3ccc(OC(F)(F)F)c(Cl)c3)CC2)ccn(CC2CC2)c1=O [3-010]
187

Return melting point for the following molecule: CCCCn1ccc(Nc2ccc(Oc3cccnc3)cc2)c(C#N)c1=O [1-296]
151

Return the recorded melting point value; entry: CC(C)CCn1ccc(N2CCN(c3nc4ccccc4o3)CC2)c(C#N)c1=O [2-035]
288

Determine its reported melting point: CN(Cc1ccccc1)C1CCN(c2ccn(Cc3ccc(OC(F)(F)F)cc3)c(=O)c2C#N)CC1 [4-049]
138

Provide one value: measured melting point of CC(C)CCn1ccc(N2CCC(C(=O)c3ccccc3)CC2)c(C#N)c1=O [4-012]
296

Quote melting point reported for CC(C)CCn1ccc(N2CCC3Oc4ccccc4OC3C2)c(C#N)c1=O (stereo not drawn) [5-037] please.
217

Quote melting point reported for COc1ccc(-c2ccn(CC3CCC(C)CC3)c(=O)c2C#N)cc1 (stereo not drawn) [1-013] please.
128

Give a short answer stating reported melting point for CC(C)CCn1ccc(-c2ccc(OCc3cccc(F)c3)cc2)c(C#N)c1=O [1-146] .
139

Tell me its melting point given COc1ccc(CNc2ccc(-c3ccn(CCC(C)C)c(=O)c3C#N)cc2)cc1 [1-203] as the entry.
173

Write down melting point measured for item CC(C)CCn1ccc(-c2cccs2)c(C#N)c1=O [1-082]
123

Identify measured melting point corresponding to CC(C)CCn1ccc(-c2ccc(NCc3ccncc3)cc2)c(C#N)c1=O [1-210]
73

Specify measured melting point for CC(C)CCn1ccc(-c2ccc(OCc3cccnc3)cc2)c(C#N)c1=O [1-158] .
142

Check the records and state melting point for N#Cc1c(N2CCN(Cc3ccc(F)c(F)c3)CC2)ccn(Cc2ccc(F)cc2)c1=O [2-051]
239

Determine from records and report melting point for CC(=O)NCCOc1ccc(-c2ccn(CCC(C)C)c(=O)c2C#N)cc1 [1-128]
107

Using the record for CCCCn1ccc(-c2ccc3c(c2)nc(C)n3Cc2ccccn2)c(C#N)c1=O [5-002] , state its measured melting point.
164.7

Look up and state reported melting point for CC(C)CCn1ccc(N2CCC(c3noc(CC(C)(C)C)n3)CC2)c(C#N)c1=O [4-040]
113

Answer with reported melting point of N#Cc1c(-c2cccs2)ccn(CC2CCCCC2)c1=O [1-008]
148

Using the record for CC(C)CCn1ccc(-c2ccc(OC(F)(F)F)cc2)c(C#N)c1=O [1-120] , state its measured melting point.
122

Find the measured melting point of CC(C)CCn1ccc(-c2ccccc2F)c(C#N)c1=O [1-087] and report it.
125

Give the reported value of melting point for this record: CC(C)CCn1ccc(OCC2CCN(Cc3cccc(C(F)(F)F)c3)CC2)c(C#N)c1=O [3-009]
117

For the molecule CC(C)CCn1ccc(N2CCC(c3cccc(C(F)(F)F)c3)CC2)c(C#N)c1=O [4-016] , report melting point.
112
